study system: ER (Homo sapiens (Human), UniProt P03372)
Sequence (P03372 whole entry): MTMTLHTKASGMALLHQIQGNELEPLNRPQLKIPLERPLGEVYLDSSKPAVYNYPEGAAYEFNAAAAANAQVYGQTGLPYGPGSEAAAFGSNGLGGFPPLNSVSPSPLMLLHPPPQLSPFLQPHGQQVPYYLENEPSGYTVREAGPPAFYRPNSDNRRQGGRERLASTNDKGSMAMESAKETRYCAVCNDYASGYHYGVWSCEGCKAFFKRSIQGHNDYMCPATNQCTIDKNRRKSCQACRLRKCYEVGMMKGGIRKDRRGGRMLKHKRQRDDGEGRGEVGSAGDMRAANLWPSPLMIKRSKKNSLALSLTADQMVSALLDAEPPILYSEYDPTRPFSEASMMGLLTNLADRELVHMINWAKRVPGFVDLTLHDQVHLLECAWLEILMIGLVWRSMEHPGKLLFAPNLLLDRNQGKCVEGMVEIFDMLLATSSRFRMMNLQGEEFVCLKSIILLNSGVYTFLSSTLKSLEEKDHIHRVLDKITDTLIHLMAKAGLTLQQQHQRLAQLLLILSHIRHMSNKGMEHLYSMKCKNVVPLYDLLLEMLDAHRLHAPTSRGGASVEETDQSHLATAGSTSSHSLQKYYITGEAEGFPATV
experimental details: In-cell western blot analysis of ER for "B" compounds
Type: cell-based
measurement context: 16 hours, read-out: ICW DC50
observable: DC50

• O=C1CCC(N2Cc3c(ccc4c3OCC43CCN(CC4CC5(CCN(c6ccc([C@@H]7c8ccc(O)cc8CC[C@@H]7c7ccccc7)cc6)CC5)CO4)CC3)C2=O)C(=O)N1 (stereo partly shown) = 10 to 100 nM
• O=C1CCC(N2Cc3c(ccc4c3OC[C@H]3CN(CC(=O)N5CC(Oc6ccc([C@@H]7c8ccc(O)cc8CC[C@@H]7c7ccccc7)cc6)C5)CCN43)C2=O)C(=O)N1 (stereo partly shown) = < 10 nM
• O=C1CC[C@H](NC(=O)c2ccc(N3CCN(CC4CCN(c5ccc([C@@H]6c7ccc(O)cc7CC[C@@H]6c6ccccc6)cc5)CC4)CC3)cc2)C(=O)N1 = > 100 nM
• O=C1CCC(N2Cc3cc4c(cc3C2=O)OC[C@@H]2CN(CC(=O)N3CCC5(CC3)CCN(c3ncc([C@@H]6c7ccc(O)cc7CC[C@@H]6c6ccccc6)cn3)CC5)CCN42)C(=O)N1 (mixture of isomers) = 10 to 100 nM
• CN1C[C@@H]2CN(C(=O)CN3CC4(CCN(c5ccc([C@@H]6c7ccc(O)cc7CC[C@@H]6c6ccccc6)cc5)CC4)C3)CCN2c2cc3c(cc21)C(=O)N(C1CCC(=O)NC1=O)C3 (stereo partly shown) = 10 to 100 nM
• O=C1CCC(N2Cc3c(ccc4c3OCC43CCN(CC4CCC5(CN(c6ccc([C@@H]7c8ccc(O)cc8CC[C@@H]7c7ccccc7)cc6)C5)OC4)CC3)C2=O)C(=O)N1 (stereo partly shown) = 10 to 100 nM
• O=C1CCC(Nc2ccc(C3CCN(CC4CC5(CCN(c6ccc([C@@H]7c8ccc(O)cc8CC[C@@H]7c7ccccc7)cc6)CC5)C4)CC3)cc2F)C(=O)N1 (stereo partly shown) = > 100 nM
• O=C1CCC(N2Cc3cc4c(cc3C2=O)OC[C@@H]2CN(C(=O)CN3CCN(c5ccc([C@@H]6c7ccc(O)cc7CC[C@@H]6c6ccccc6)cc5)CC3)CCN42)C(=O)N1 (stereo partly shown) = 10 to 100 nM
• O=C1CC[C@H](N2Cc3c(ccc4c3OC[C@H]3CN(C[C@H]5CC[C@H](Nc6ccc([C@@H]7c8ccc(O)cc8CC[C@@H]7c7ccccc7)cc6)CC5)CCN43)C2=O)C(=O)N1 = 10 to 100 nM
• O=C1CC[C@H](NC(=O)c2ccc3c(n2)OC[C@H]2CN(CC4CCN(c5ccc([C@@H]6c7ccc(O)cc7CC[C@@H]6c6ccccc6)cc5)CC4)CCN32)C(=O)N1 = > 100 nM

###

study system: ER in MCF-7 cells (Homo sapiens (Human))
Sequence (P03372 whole entry): as above
experimental details: In-cell Western (ICW) ER degradation assay in MCF-7 cells
Type: cell-based
measurement context: MCF-7, ER degradation, 16 hrs treatment; read-out: MCF7 DC50
Excerpt: In-cell Western (ICW) assays in MCF-7 and T47D cell lines. Day 3: After 16 hrs of compounds treatment, cells were fixed by 4% PFA and permeabilized with elution buffer (0.1% Triton X-100 in 1% PBS Solution). Subsequently, cells were blocked with Intercept (PBS) Blocking Buffer (Li-COR, Odyssey Blocking Buffer), and were stained with ER (1:500, Cell signaling) primary antibody for overnight at cold room. […]
Listed below: DC50 values for each entry.
observable: DC50

- COc1cc(N2CCC3(CC2)CC(CN2CCN4c5cc6c(cc5OC[C@@H]4C2)C(=O)N([C@H]2CCC(=O)NC2=O)C6)C3)c(F)cc1[C@@H]1c2ccc(O)cc2CC[C@@H]1c1ccccc1: < 1 nM
- COc1cc(N2CCC3(CC2)CC(CN2CCN4c5cc6c(cc5OC[C@@H]4C2)C(=O)N([C@H]2CCC(=O)NC2=O)C6)CO3)ccc1[C@@H]1c2ccc(O)cc2CC[C@@H]1c1ccccc1 (stereo partly shown): 10 to 100 nM
- O=C1CCC(NC(=O)c2ccc(C3CCN(CC4CCN(c5ccc([C@@H]6c7ccc(O)cc7CC[C@@H]6c6ccccc6)cc5)CC4)CC3)cn2)C(=O)N1 (stereo partly shown): < 1 nM
- COc1cc(N2CCC3(CC2)CC(CN2CCN4c5cc6c(cc5OC[C@@H]4C2)C(=O)N([C@H]2CCC(=O)NC2=O)C6)C3)ccc1[C@@H]1c2ccc(O)cc2CC[C@@H]1c1ccccc1 (single isomer, unassigned): < 1 nM
- COc1cc(N2CCC(CN3CCN4c5cc6c(cc5OC[C@H]4C3)C(=O)N([C@@H]3CCC(=O)NC3=O)C6)CC2)ccc1[C@H]1c2ccc(O)cc2CC[C@H]1c1ccccc1 (stereo in doubt): < 1 nM
- O=C1CC[C@H](N2Cc3c(ccc4c3OCC43CCN(CC4CC5(CCN(c6ccc([C@@H]7c8ccc(O)cc8CC[C@@H]7c7ccccc7)cc6F)CC5)C4)CC3)C2=O)C(=O)N1: 10 to 100 nM
- COc1cc(N2CCC(CN3CCC4(CC3)COc3cc5c(cc34)CN([C@H]3CCC(=O)NC3=O)C5=O)CC2)c(F)cc1[C@@H]1c2ccc(O)cc2CC[C@@H]1c1ccccc1: < 1 nM
- COc1cc(N2CCC(CCN3CCN4c5cc6c(cc5OC[C@@H]4C3)C(=O)N([C@H]3CCC(=O)NC3=O)C6)CC2)c(F)cc1[C@@H]1c2ccc(O)cc2CC[C@@H]1c1ccccc1: < 1 nM
- O=C1CC[C@H](N2Cc3c(ccc4c3OC[C@H]3CN(CC5CC6(CCN(c7ccc([C@@H]8c9ccc(O)cc9CC[C@@H]8c8ccccc8)cn7)CC6)C5)CCN43)C2=O)C(=O)N1 (single isomer, unassigned): < 1 nM
- COc1cc(N2CCC(CN3CCC4(CC3)COc3cc5c(cc34)CN([C@H]3CCC(=O)NC3=O)C5=O)CC2)ccc1[C@H]1c2ccc(O)cc2CC[C@H]1c1ccccc1: 10 to 100 nM

###

study system: ER (Homo sapiens (Human), UniProt P03372)
experimental details: In-cell western blot analysis of ER for "B" compounds
Format: cell-based
measurement context: 16 hours, read-out: ICW DC50
Description: R^T 2h, gentle shaking. […]
Form field: DC50 (one value per entry).
observable: DC50

• O=C1CCC(Nc2ccc(N3CCN(CC4CCN(c5ccc([C@@H]6c7ccc(O)cc7CC[C@@H]6c6ccccc6)cc5)CC4)CC3)c(F)c2)C(=O)N1 (some centres unmarked) = > 100 nM
• O=C1CC[C@H](NC(=O)c2ccc3c(c2)OC[C@H]2CN(CC4CCN(c5ccc([C@@H]6c7ccc(O)cc7CC[C@@H]6c6ccccc6)cc5)CC4)CCN32)C(=O)N1 = 10 to 100 nM
• O=C1CC[C@H](N2Cc3c(ccc4c3OC[C@H]3CN(CC5CCC6(CN(c7ccc([C@@H]8c9ccc(O)cc9CC[C@@H]8c8ccccc8)cc7)C6)OC5)CCN43)C2=O)C(=O)N1 (some centres unmarked) [Compound B333] = < 10 nM
• CN(CC1CCN(c2ccc([C@@H]3c4ccc(O)cc4CC[C@@H]3c3ccccc3)cc2)CC1)[C@H]1C[C@H]2COc3cc4c(cc3N2C1)CN(C1CCC(=O)NC1=O)C4=O (some centres unmarked) = > 100 nM
• O=C1CCC(N2Cc3cc4c(cc3C2=O)OC[C@@H]2CN(C(=O)CN3CCC5(CC3)CCN(c3ccc([C@@H]6c7ccc(O)cc7CC[C@@H]6c6ccccc6)cc3)CC5)CCN42)C(=O)N1 (some centres unmarked) = < 10 nM
• O=C1CCC(N2Cc3cc4c(cc3C2=O)OC[C@@H]2CN(C(=O)CN3CCC5(CC3)CCN(c3ncc([C@@H]6c7ccc(O)cc7CC[C@@H]6c6ccccc6)cn3)CC5)CCN42)C(=O)N1 (some centres unmarked) = 10 to 100 nM
• O=C1CCC(N2Cc3c(ccc4c3OC[C@H]3CN(CC5COC6(C5)CN(c5ccc([C@@H]7c8ccc(O)cc8CC[C@@H]7c7ccccc7)cc5)C6)CCN43)C2=O)C(=O)N1 (some centres unmarked) = < 10 nM
• O=C1CCC(N2Cc3c(ccc4c3OC[C@@H]3CN(C(=O)CN5CC(Oc6ccc([C@@H]7c8ccc(O)cc8CC[C@@H]7c7ccccc7)cc6)C5)CCN43)C2=O)C(=O)N1 (some centres unmarked) = 10 to 100 nM
• O=C1CCC(N2Cc3cc4c(cc3C2=O)CC2(C4)CN(C[C@@H]3CCN(c4ccc([C@@H]5c6ccc(O)cc6CC[C@@H]5c5ccccc5)cc4)C3)C2)C(=O)N1 (some centres unmarked) = > 100 nM
• O=C1CC[C@H](N2Cc3c(ccc4c3OC[C@H]3CN(CC(=O)OC5CCN(c6ccc([C@@H]7c8ccc(O)cc8CC[C@@H]7c7ccccc7)cc6)CC5)CCN43)C2=O)C(=O)N1 = < 10 nM
• O=C1CCC(N2Cc3cc4c(cc3C2=O)OC[C@@H]2CN(C(=O)CN3CCC5(CC3)CN(c3ccc([C@@H]6c7ccc(O)cc7CC[C@@H]6c6ccccc6)cc3)C5)CCN42)C(=O)N1 (some centres unmarked) = < 10 nM
• O=C1CCC(N2Cc3cc4c(cc3C2=O)CN(CC(=O)N2CCC3(CC2)CCN(c2ccc([C@@H]5c6ccc(O)cc6CC[C@@H]5c5ccccc5)cc2)CC3)C4)C(=O)N1 (some centres unmarked) = < 10 nM
• O=C1CCC(N2Cc3c(ccc4c3OCC43CCN(CC(=O)N4CC5(CCN(c6ccc([C@@H]7c8ccc(O)cc8CC[C@@H]7c7ccccc7)cc6)CC5)C4)CC3)C2=O)C(=O)N1 (some centres unmarked) = < 10 nM
• O=C1CCC(N2Cc3cc4c(cc3C2=O)OC[C@@H]2CN(CC(=O)N3CCC5(C3)CN(c3ccc([C@@H]6c7ccc(O)cc7CC[C@@H]6c6ccccc6)cc3)C5)CCN42)C(=O)N1 (some centres unmarked) = < 10 nM
• O=C1CCC(N2Cc3cc4c(cc3C2=O)OC[C@@H]2CN(CC3CCC5(CCN(c6ccc([C@@H]7c8ccc(O)cc8CC[C@@H]7c7ccccc7)cc6)CC5)C3)CCN42)C(=O)N1 (some centres unmarked) = 10 to 100 nM
• O=C1CCC(N2Cc3cc4c(cc3C2=O)OC[C@@H]2CN(CC(=O)N3CC5(CCN(c6ccc([C@@H]7c8ccc(O)cc8CC[C@@H]7c7ccccc7)cc6)CC5)C3)CCN42)C(=O)N1 (some centres unmarked) = < 10 nM
• O=C1CCC(N2Cc3cc4c(cc3C2=O)OC[C@@H]2CN(CC(=O)N3CC5(CCN(c6ccc([C@@H]7c8ccc(O)cc8CC[C@@H]7c7ccccc7)cc6)C5)C3)CCN42)C(=O)N1 (some centres unmarked) = < 10 nM
• O=C1CC[C@H](NC(=O)c2ccc3c(n2)OC[C@H]2CN(CC4CCC5(CCN(c6ccc([C@@H]7c8ccc(O)cc8CC[C@@H]7c7ccccc7)cc6)CC5)C4)CCN32)C(=O)N1 (some centres unmarked) = 10 to 100 nM
• O=C1CCC(N2Cc3cc4c(cc3C2=O)OC[C@@H]2CN(C(=O)CN3CC5(C3)CN(c3ccc([C@@H]6c7ccc(O)cc7CC[C@@H]6c6ccccc6)cc3)C5)CCN42)C(=O)N1 (some centres unmarked) = < 10 nM
• O=C1CCC(Nc2ccc(C3CCN(CC4CCN(c5ccc([C@@H]6c7ccc(O)cc7CC[C@@H]6c6ccccc6)cc5)CC4)CC3)cc2F)C(=O)N1 (some centres unmarked) = > 100 nM
